system_tested: T1, biotinylated cynomolgus CD203c (bio-cyCD203c, Icosagen) (cynomolgus monkey, UniProt A0A2K5TKP4 31-874, biotinylated (site not stated))
T1 construct: Captured on a Biotin CAPture chip for SPR; also called cyno CD203c
T1 sequence: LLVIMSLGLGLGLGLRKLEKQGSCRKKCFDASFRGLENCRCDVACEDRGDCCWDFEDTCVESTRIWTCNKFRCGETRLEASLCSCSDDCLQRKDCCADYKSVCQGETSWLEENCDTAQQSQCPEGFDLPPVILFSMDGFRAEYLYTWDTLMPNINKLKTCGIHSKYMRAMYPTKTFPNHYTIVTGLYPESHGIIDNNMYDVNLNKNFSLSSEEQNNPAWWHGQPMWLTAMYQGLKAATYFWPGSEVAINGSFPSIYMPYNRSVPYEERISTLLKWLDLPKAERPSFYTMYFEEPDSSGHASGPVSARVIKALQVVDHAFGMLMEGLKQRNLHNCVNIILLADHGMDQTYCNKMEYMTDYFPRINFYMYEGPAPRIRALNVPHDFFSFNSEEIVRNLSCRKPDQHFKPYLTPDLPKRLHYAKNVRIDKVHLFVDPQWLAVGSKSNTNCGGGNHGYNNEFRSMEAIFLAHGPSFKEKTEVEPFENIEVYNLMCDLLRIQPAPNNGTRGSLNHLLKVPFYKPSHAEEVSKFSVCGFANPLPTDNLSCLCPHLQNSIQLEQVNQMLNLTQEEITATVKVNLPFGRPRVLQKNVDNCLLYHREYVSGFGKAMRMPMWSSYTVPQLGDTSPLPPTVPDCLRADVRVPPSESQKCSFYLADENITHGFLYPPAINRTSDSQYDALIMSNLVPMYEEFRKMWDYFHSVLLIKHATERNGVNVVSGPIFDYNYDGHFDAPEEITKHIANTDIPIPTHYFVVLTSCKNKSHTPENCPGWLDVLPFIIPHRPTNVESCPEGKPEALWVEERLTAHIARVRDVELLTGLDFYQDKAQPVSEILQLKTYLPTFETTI
experimental_protocol: SPR, single-cycle protocol, Bio-cyCD203c; table gives Rmax, Chi2 and KD only
readout_type: Kd (nM)

1. MH1_C/F6.12_D bispecific (pI-engineered) (bispecific antibody, V domains shown, Knob-in-hole IgG1null bispecific with human Ckappa) VH 1: QVQLVQSGAEVKEPGASVKVSCKASGYTFTDYYMNWVRQAPGQGLEWMGRIYPGSGNTYYAQNFQGRVTMTRDTSTSTVYMELSSLRSEDTAVYYCARGVYYYDYWGQGTLVTVSS VH 2: QVQLVQSGAEVKKPGESLKISCKGSGYRFASNWIGWVRQMPGKGLEWMGEIYPGDSNTRYSPSFQGQVTISADKSISTAYLQWSRLKASDTAMYYCARKDYYYGIMDVWGQGTTVTVSS VL: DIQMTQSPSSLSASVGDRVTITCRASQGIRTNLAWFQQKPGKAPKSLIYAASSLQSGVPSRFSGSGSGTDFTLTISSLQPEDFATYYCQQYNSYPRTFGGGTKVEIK    63.1
